Taken from ChEMBL document CHEMBL1151139.

test: Toxicity against brine shrimp; format: organism-based; details: artemia, in vivo; read-out: ED50 (the source's name)
recordedEndpoint: LC50 (µg/mL)

CCCCCCCCCCCC[C@H](O)[C@@H]1CC[C@@H]([C@@H](O)CCCCCC(O)CCCCC2CC(CC(C)O)C(=O)O2)O1 (some centres not stated) [TETRAHYDROSQUAMONE]	2.7
CCCCCCCCCCCC[C@H](O)[C@@H]1CC[C@@H]([C@@H](O)CCCCCC(=O)CCCCC2CC(CC(C)=O)C(=O)O2)O1 (some centres not stated) [SQUAMONE]	2.1
